All figures here come from patent US20250270343A1.

Listed here are binders together with their documented MFI fold over background.
Biological target: T1, mouse GPNMB endogenously expressed on B16F10 cells (mouse, UniProt Q99P91 23-574)
T1 construct: whole, on cells; also called moGPNMB
T1 sequence (looked up): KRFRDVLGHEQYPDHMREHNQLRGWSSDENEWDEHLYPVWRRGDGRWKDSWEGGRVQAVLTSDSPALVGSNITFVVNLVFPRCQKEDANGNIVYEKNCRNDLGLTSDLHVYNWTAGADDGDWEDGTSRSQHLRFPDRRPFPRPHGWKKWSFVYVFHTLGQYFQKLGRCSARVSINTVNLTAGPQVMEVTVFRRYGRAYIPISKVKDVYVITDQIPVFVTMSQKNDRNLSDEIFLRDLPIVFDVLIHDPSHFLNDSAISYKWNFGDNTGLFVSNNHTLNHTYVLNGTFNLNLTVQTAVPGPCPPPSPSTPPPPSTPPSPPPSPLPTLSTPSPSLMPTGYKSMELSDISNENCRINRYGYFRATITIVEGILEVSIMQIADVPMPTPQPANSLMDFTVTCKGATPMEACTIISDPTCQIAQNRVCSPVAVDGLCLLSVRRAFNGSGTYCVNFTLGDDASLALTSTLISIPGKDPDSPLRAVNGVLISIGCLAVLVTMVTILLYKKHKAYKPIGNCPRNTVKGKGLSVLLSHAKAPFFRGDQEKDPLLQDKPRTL
Assay: FACS, B16F10 cells
API: value field is a number in fold; no unit string.

anti-GPNMB antibody GPN-42 (antibody, human IgG1, V domains shown, chimeric) VH: DVKLVESGEDLVKPGGSLKLSCAASGFTFSSYAMSWVRQTPEKRLEWVAYISSGGDYIYYADTVKGRFTISRDNARNTLYLQMSSLKSEDTAMYYCTRDRYYDYDVRDYYTMDYWGQGTSVTVSS VL: DVMMTQTPLSLPVSLGDQASISCRSSQSLVHSNGNTYLHWFLQKPGQSPKLLIFRVSNRFSGVPDRFSGRGSGTDFTLKISRVEAEDLGVYFCSQTTHVPRTFGGGTTLEIK : 2.6
anti-GPNMB antibody GPN-41 (antibody, human IgG1, V domains shown, chimeric) VH: QLQLQQSGTEVVKPGASVKIPCKASGYAFSSYWMNWVKQRPGKGLEWIGQIYPGDGDTNDNGKFEGKATLTVDKSSNTAYIQLSSLTSEDSAVYFCARSPLHLRGSMDYWGQGTSVTVSS VL: SIVMTQTPKFLLVSAGDRVTITCKASQSVSNDVAWFQQKPGQSPELLIYSASNRYTGVPDRFTASGYGTDFTFTISAVQAEDLAVYFCQQNYYSPFTFGGGTRLEIK : 15
anti-GPNMB antibody GPN-24 (antibody, human IgG1, V domains shown, chimeric) VH: QVQLQQPGAELVKPGASVKMSCKASGYTFTSYWITWVKQRPGQGLEWIGDIHPGSGRSNYNEKFKNKATLNVDTSSSTVYMQLSSLTSEDSAVYYCARDYLFAYWGQGTLVTVSA VL: DIQMTQSPSSLSASLGERVSLTCRASQEISGYLSWLQQKPDGTIKRLIYSTSTLDSGVPKRFSGSRSGSDYSLTISSLESEDFADYYCLQYTSSPPTFGGGTKLEIK : 1
anti-GPNMB antibody GPN-35 (antibody, human IgG1, V domains shown, chimeric) VH: EVQLVESGGGSVRPGRSLKLSCAAAGFTFSDYYMTWVRQAPTKGLEWVASINHDGGGTYYRDSVKGRFTISRDNARSSLYLQMDSLRSEDTGTYYCTTRAGWHWGQGVMVTVSS VL: DIQMTQSPASLSASLGETVSIECLASEDIYNYLTWYQQKPGKSPQVLIYSASGLQDGVPSRFSGSGSGRQYSLKINGLESEDAATYFCLQDSEYPLTFGSGTKLEIK : 15.4
anti-GPNMB antibody GPN-01 (antibody, human IgG1, V domains shown, chimeric) VH: QVQLQQSGAELAKPGASVKLSCKASGYNFTNYCIHWVKQRPGQGLEWIGYINPSTGYTEYNQKFKDKATLTADKSSTTAYMQLSSLTSEDSAVYYCARGRYDEFTYWGQGTLVTVSA VL: DIVLTQSPASLAVSLGQRATISCRASKSVSTSTYSYMHWYQQKPGQPPKLLIYLASNLESGVPARFSGSGSGTDFTLNIHPVEEEDAATYYCQHSRELPPTFGGGTKLEIK : 1

Query: Using the record for anti-GPNMB antibody GPN-33 (antibody, human IgG1, V domains shown, chimeric) VH: EVQLVESGGSLVQPGGSLKLSCVASGYTFSNYWMDWVRQTPGKSLEWIGEINTDGSKTNYAPSIKDRFTISRDNAKSTLYLQMSNVKADDTAIYYCTRGPGAWGQGTSVTVSS VL: DIVMTQTPLSLSVAIGQSASISCKSSQSLKFSDGKTYLNWVFQSPGQSPKRLIYQVSKLDSGVPDRFSGTGSETDFILKISRVEAEDLGVYYCCQGSYSPWTIGGGTKLELK , state its measured MFI fold over background.
Result: 20.9

Query: Using the record for anti-GPNMB antibody GPN-26 (antibody, human IgG1, V domains shown, chimeric) VH: EVQLQQSGPELVKPGASVKISCKASGYSFTGYYMNWVRQSPEKSLEWIGEINPSTGITTYNQKFKAKATLTVDKSSNTAFMQLKSLTSEDSAVYYCARPASWFDYWGQGTLVTVSA VL: DIQMTQSPSSLSASLGERVSLTCRASQEISGHLSWLQQKPDGTIKRLIYAASTLDSGVPKRFSGSRSGSDYSLTISSLESEDFADYYCLQYASYPYTFGGGTKLEIK , state its measured MFI fold over background.
Result: 1

Query: Using the record for anti-GPNMB antibody GPN-03 (antibody, human IgG1, V domains shown, chimeric) VH: QVQLQQSGPELVKPGASVKLSCKASGYTFTNYYMYWVKQRPGQGLEWIGEINPRNGGTNFNEKFKSKATLTVDKSSSTAYMQLSSLTFEDSAVYYCTTGLAYWGQGTLVTVSA VL: DVVMTQTPLSLPVSLGDQASISCRSSQSLVHSDGNTYLHWYLQKPGQSPKLLIYKVSTRFSGVPDRFSGSGSGTDFTLKISRVEAEDLGVYFCSQSTHVPWTFGGGTKLEIK , state its measured MFI fold over background.
Result: 1.1

Query: Using the record for anti-GPNMB antibody GPN-38 (antibody, human IgG1, V domains shown, chimeric) VH: QVQLQQPGAELVRPGTSVRLSCKASGYTFTSYWIHWVKQRPGRGLEWIGVIDPSDSYTNYNQQFNVKATLTVDTSSSAAYMQLSSLTSEDSAVYYCARGLITAVNWYFDVWGTGTTVTVSS VL: DIQMTQSPASLSTSVGEIVTITCRASENIYSYLTWYQQKQGKSPQLLVYNAKTLAEGVPSRFSGSGSGTQFSLKINSLQPEDFGTYYCQHHYGTPLTFGSGTKLEIK , state its measured MFI fold over background.
Result: 5.1

Query: Using the record for anti-GPNMB antibody GPN-30 (antibody, human IgG1, V domains shown, chimeric) VH: EVQLQQSGPELVNPGASVRISCKASGYSFTGYYMNWVKQSPEKSLEWIGEINPNTGFTTYNQNFKAKATLTVDKSSSTAYIQLKSLTSEDSAVYYCTRPSPSFDYWGQGTTLTVSS VL: DIQMTQSPSSLSASLGERGSLTCRASQEISGHLSWLQQKPDGTIKRLIYAASTLDSGVPKRFSGSRSGSDYSLTISSLESEDFADYYCLQYASYPYTFGGGTKLEIK , state its measured MFI fold over background.
Result: 1
